Quick list: ED50 per entry.
Tested on: Mus musculus
TEST_PROTOCOL: Analgesic potency was evaluated as effective dose after subcutaneous administration.
Type: functional
EXPERIMENTAL_CONDITIONS: Mus musculus, sc; read-out: ED50
MEASURED_ATTRIBUTE: ED50 (mg/kg)

COMPOUND | NUMBER
CCC(Oc1ccc(Cl)cc1)C(=O)OC1CC2CCC(C1)N2C.O=C(O)/C=C\C(=O)O (racemic) | 20
CC[C@@H](Oc1ccc(Cl)cc1)C(=O)OC1CC2CCC(C1)N2C (some centres undefined) | 14
CC(Oc1ccc(C(F)(F)F)cc1)C(=O)OC1CC2CCC(C1)N2C (centres undefined) | 26
CC(Oc1ccc(Cl)cc1)C(=O)NC1CC2CCC(C1)N2C.Cl (centres undefined) | 36
CC(Oc1ccc(Cl)c(Cl)c1)C(=O)OC1CC2CCC(C1)N2C.O=C(O)/C=C\C(=O)O (centres undefined) | 22
CC(Sc1ccccc1)C(=O)OC1CC2CCC(C1)N2C.O=C(O)/C=C\C(=O)O (centres undefined) | 30
CC(Oc1ccc(F)cc1)C(=O)OC1CC2CCC(C1)N2C.O=C(O)/C=C\C(=O)O (racemic) | 33
C[C@H](Oc1ccc(Cl)cc1)C(=O)OC1CC2CCC(C1)N2C (some centres undefined) | 17
CN1C2CCC1CC(OC(=O)C(C)(C)Oc1ccc(Cl)cc1)C2 (centres undefined) | 23

----------
Test system: Mus musculus
TEST_PROTOCOL: Analgesic potency was evaluated as effective dose after subcutaneous administration.
Assay type: functional
EXPERIMENTAL_CONDITIONS: Mus musculus, sc; read-out: ED50

COMPOUND | TARGET_OR_SYSTEM | UNIT_STRING | ED50
CSc1ccc(OC(C)C(=O)OC2CC3CCC(C2)N3C)cc1.O=C(O)/C=C\C(=O)O (stereo unspecified) | Mus musculus | mg/kg | 43
CC[C@H](Sc1ccc(Cl)cc1)C(=O)OC1CC2CCC(C1)N2C (stereo partly specified) | Mus musculus | mg/kg | 14
CC(Oc1ccc(Br)cc1)C(=O)OC1CC2CCC(C1)N2C (stereo unspecified) | Mus musculus | mg/kg | 31
CC(Oc1ccc(C#N)cc1)C(=O)OC1CC2CCC(C1)N2C.O=C(O)/C=C\C(=O)O (stereo unspecified) | Mus musculus | mg/kg | 31
Cc1ccc(SC(C)C(=O)OC2CC3CCC(C2)N3C)cc1.O=C(O)/C=C\C(=O)O (stereo unspecified) | Mus musculus | mg/kg | 7
CC(=O)OCC(Oc1ccc(Cl)cc1)C(=O)OC1CC2CCC(C1)N2C (stereo unspecified) | Mus musculus | mg/kg | 23
CCN1C2CCC1CC(OC(=O)C(C)Oc1ccc(Cl)cc1)C2.O=C(O)/C=C\C(=O)O (stereo unspecified) | Mus musculus | mg/kg | 42
CC(C(=O)OC1CC2CCC(C1)N2C)C(=O)c1ccc(Cl)cc1 (stereo unspecified) | Mus musculus | mg/kg | 34
CC(COC1CC2CCC(C1)N2C)Oc1ccc(Cl)cc1 (stereo unspecified) | Mus musculus | mg/kg | 44
C[C@H](Oc1ccc(F)cc1)C(=O)OC1CC2CCC(C1)N2C (stereo partly specified) | Mus musculus | mg/kg | 23
C[C@H](Sc1ccc(Cl)cc1)C(=O)OC1CC2CCC(C1)N2C (stereo partly specified) | Mus musculus | mg/kg | 16
CCC(Oc1ccc(Cl)cc1)C(=O)OC1CC2CCC(C1)N2CC (stereo unspecified) | Mus musculus | mg/kg | 32
CC(Oc1ccc2ccccc2c1)C(=O)OC1CC2CCC(C1)N2C.O=C(O)/C=C\C(=O)O (stereo unspecified) | Mus musculus | mg/kg | 34
CC(Oc1cccc(Cl)c1)C(=O)OC1CC2CCC(C1)N2C (stereo unspecified) | Mus musculus | mg/kg | 26
CCC(C(=O)OC1CC2CCC(C1)N2C)N(C)c1ccc(Cl)cc1.O=C(O)/C=C\C(=O)O (stereo unspecified) | Mus musculus | mg/kg | 38
CC(Nc1ccc(Cl)cc1)C(=O)OC1CC2CCC(C1)N2C (stereo unspecified) | Mus musculus | mg/kg | 31
CCC(COC1CC2CCC(C1)N2C)Sc1ccc(Cl)cc1 (stereo unspecified) | Mus musculus | mg/kg | 39
CCC(Sc1ccc(Cl)cc1)C(=O)OC1CC2CCC(C1)N2C (racemic) | Mus musculus | mg/kg | 20
CC(Sc1ccc(Br)cc1)C(=O)OC1CC2CCC(C1)N2C (stereo unspecified) | Mus musculus | mg/kg | 35
CC(Nc1ccccc1)C(=O)OC1CC2CCC(C1)N2C.Cl (stereo unspecified) | Mus musculus | mg/kg | 32
CC[C@H](Oc1ccc(Cl)cc1)C(=O)OC1CC2CCC(C1)N2C (stereo partly specified) | Mus musculus | mg/kg | 18

Entry source: ChEMBL document CHEMBL1127533
